Provenance of the data: PubChem BioAssay AID1259417

Test: M. tuberculosis growth inhibition, HTS (AID 1259417);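 also: bacteria grown with compound for 5 days at 37 °C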
Conditions: M. tuberculosis DsRed fluorescence growth inhibition; hits give high values; concentration not given here
About 760 (69%) of roughly 1,100 compounds were called active. The set was probably picked from earlier hits. This is one part of the list.
Note to self: class labels come from recorded inhibition, ranges listed here: lower segment: < 10%; middle segment: ≥ 10% and < 80%; upper segment: ≥ 80%

Which inhibition category applies to CC1=NN(C(=O)c2ccccc2)C(O)(c2ccncc2)C1 (stereo unspecified) here?
upper segment

Also "Cc1ccc(C)c(N=Nc2nc3ccccc3n2C)c1" , if possible.
upper segment

Also "CCOc1ccc(OCC(=O)Nc2cc(C)cc(C)c2)cc1" , if possible.
lower segment

Also "Cc1cc(NC(=O)c2ccc([N+](=O)[O-])o2)c(C)cc1I" , if possible.
upper segment

Also "O=C(Oc1cccc2cccnc12)c1ccccc1F" , if possible.
upper segment

Also "CCOC(=O)c1ccc(NC(=O)c2ccc(C)s2)cc1" , if possible.
upper segment

Also "O=C(C=Cc1cccs1)N(CCCn1ccnc1)c1nc2ccccc2s1" , if possible.
upper segment

Also "CCOC(=O)CSc1nnc(-c2cccc(Br)c2)o1" , if possible.
middle segment

Also "c1ccc2cc3nc4c(ccc5ccccc54)nc3cc2c1" , if possible.
upper segment

Also "COc1ccc(C)c2sc(N(CCCn3ccnc3)C(=O)c3cccs3)nc12" , if possible.
middle segment

Also "COc1ccccc1C(=O)Nc1nnc(-c2cc(C)ccc2C)o1" , if possible.
lower segment

Also "O=[N+]([O-])c1ccc(-c2[nH]c(-c3cccs3)nc2-c2ccccc2)cc1" , if possible.
lower segment

Also "O=C(CCc1ccccc1)NC(=S)Nc1ccc(N2CCCCC2)cc1" , if possible.
upper segment

Also O=C(c1cccc(Cl)c1)N1N=C(c2ccc(Cl)cc2)CC1(O)C(F)(F)F (stereo unspecified) , if possible.
lower segment

Also "O=C(COc1ccc(Cl)cc1)Nc1ccc(N2CCN(C(=O)c3ccco3)CC2)c(Cl)c1" , if possible.
lower segment

Also "CCn1c(Sc2ncnc3ccccc23)nc2ccccc21" , if possible.
middle segment

Also "CCOC(=O)CSc1nc(C#N)c(SCC(=O)OCC)s1" , if possible.
middle segment

Also "CCOC(=O)C1=C(C)N(c2ccc(Br)cc2)C(=O)C1" , if possible.
lower segment

Also "O=C(c1ccco1)N(CCCn1ccnc1)c1nc2ccc(Br)cc2s1" , if possible.
upper segment

Also "COc1ccc(Cl)c2sc(N(CCCn3ccnc3)C(=O)c3cccs3)nc12" , if possible.
middle segment

Also "Cc1cc(C)cc(NC(=O)COc2cccc(C=O)c2)c1" , if possible.
lower segment

Also "O=C(c1ccco1)N(CCCn1ccnc1)c1nc2ccc(Cl)cc2s1" , if possible.
upper segment

Also "CCCCn1c(O)c(/C=C2\C=CC=N2)c(=O)[nH]c1=O" , if possible.
middle segment

Also "O=C(Oc1cccc2cccnc12)c1cc2ccccc2oc1=O" , if possible.
upper segment

Also "Cc1ccc(C)c(-c2nnc(NC(=O)c3cccc4ccccc34)o2)c1" , if possible.
lower segment

Also "CCN(CC)S(=O)(=O)c1ccc(Cl)c(C(=O)Oc2cccc3cccnc23)c1" , if possible.
upper segment

Also "COc1cccc(N2CCN(Cc3nc(N)nc(Nc4ccc(C)c(Cl)c4)n3)CC2)c1" , if possible.
lower segment

Also "Cc1ccc2nc(N(CCCn3ccnc3)C(=O)c3ccco3)sc2c1" , if possible.
upper segment

Also "COc1cccc(N2CCN(Cc3nc(N)nc(Nc4ccc(C)c(C)c4)n3)CC2)c1" , if possible.
middle segment

Also CC1=NN(C(=S)Cc2ccccc2)C(C)(O)C1 (stereo unspecified) , if possible.
lower segment

Also "O=c1c2ccccc2[nH]c(=S)n1CCCN1CCN(c2cccc(Cl)c2)CC1" , if possible.
middle segment

Also CC(C)(C)c1ccc(C(=O)N2N=C(c3ccccc3)CC2(O)C(F)(F)F)cc1 (stereo unspecified) , if possible.
lower segment

Also CC1=NN(C(=O)c2cccc(Cl)c2)C(O)(c2ccc(Cl)cc2)C1 (stereo unspecified) , if possible.
middle segment

Also "CCOC(=O)CSc1nc(N)c(C#N)c(CC(C)C)c1C#N" , if possible.
lower segment

Also "CCOC(=O)N1CCN(C(=O)CSc2nnc(-c3cc(OC)cc(OC)c3)o2)CC1" , if possible.
middle segment

Also "Cc1cccc(NC(=S)NCCN2CCN(c3ccc(F)c(Cl)c3)CC2)c1C" , if possible.
lower segment

Also "COC(=O)COc1ccc(-c2ccc(F)cc2)cc1C=O" , if possible.
middle segment

Also "COC(=O)COc1cccc(NC(=O)COc2ccccc2)c1" , if possible.
middle segment

Also "CCOC(=O)CSc1nnc(-c2cc(OC)c(OC)c(OC)c2)o1" , if possible.
upper segment

Also Clc1ccc(C2=CC(c3ccc(Cl)cc3)n3nnnc3N2)cc1 (stereo unspecified) , if possible.
middle segment

Also "Cc1ccc(C)c(-c2nnc(NC(=O)C(C)C)o2)c1" , if possible.
middle segment

Also "O=C(CCNc1ccc(-c2ccccc2)cc1)c1ccco1" , if possible.
middle segment

Also CCOC(=O)c1c(NC(=O)C2COc3ccccc3O2)sc2c1CC(C)(C)NC2(C)C (stereo unspecified) , if possible.
middle segment

Also "COc1ccc(Cl)cc1NC(=O)CC12CC3CC(CC(C3)C1)C2" , if possible.
middle segment
